Assay: Phase 1 study of effect of UGT inhibition by valproic acid on PK of BIIB074
Type: in vivo, human
Details: BIIB074 with valproic acid/BIIB074 alone
quantityName: AUCinf, Geo LS mean ratio

| compound | AUCinf, Geo LS mean ratio |
| --- | --- |
| Cl.NC(=O)[C@@H]1CC[C@H](c2ccc(OCc3ccccc3F)cc2)N1 | 1.68 |
| O=C(O)C1CCC(c2ccc(OCc3ccccc3F)cc2)=N1 (stereo not shown) | 1.69 |

A: O=C(O)C1CCC(c2ccc(OCc3ccccc3F)cc2)N1 (stereo not shown)
B: NC(=O)C1CCC(c2ccc(OCc3ccccc3F)cc2)N1C(=O)OC1OC(C(=O)O)C(O)C(O)C1O (stereo not shown)
// compare measured AUCinf, Geo LS mean ratio between A and B ; output the lower one # respond with the chosen item's label
B
(B: 0.52, A: 1.98)

----------
Test: Phase 1 study of effect of UGT inhibition by valproic acid on PK of BIIB074
Type: in vivo, human
Details: human, plasma, oral, single dose BIIB074 alone; read-out: Cmax, Geo LS mean
quantityName: Cmax (µg/mL)
Could you give me the number in µg/mL? Just the number is fine.

Param item = Cl.NC(=O)[C@@H]1CC[C@H](c2ccc(OCc3ccccc3F)cc2)N1 ; retrieve measured Cmax.
1.31

----------
Experiment: Phase 1 study of effect of UGT inhibition by valproic acid on PK of BIIB074
Assay type: in vivo, human
Settings: BIIB074 with valproic acid/BIIB074 alone
quantityName: Cmax, Geo LS mean ratio

Please review the entries below; each comes with its answer.
| compound | quantityName | number |
| --- | --- | --- |
| Cl.NC(=O)[C@@H]1CC[C@H](c2ccc(OCc3ccccc3F)cc2)N1 | Cmax, Geo LS mean ratio | 0.97 |
| O=C(O)C1CCC(c2ccc(OCc3ccccc3F)cc2)N1 (stereo not shown) | Cmax, Geo LS mean ratio | 1.30 |

A: O=C(O)C1CCC(c2ccc(OCc3ccccc3F)cc2)=N1 (stereo not shown)
B: NC(=O)C1CCC(c2ccc(OCc3ccccc3F)cc2)N1C(=O)OC1OC(C(=O)O)C(O)C(O)C1O (stereo not shown)
Name the one with the greater Cmax, Geo LS mean ratio value, either A or B as given. Respond with the label that goes with your answer.
A
(A: 1.54, B: 0.32)

----------
Test: Free fraction of Example 1 in plasma
Assay type: in vitro ADME
Conditions: human, listed as 350 mg bid
quantityName: fraction unbound
Enter a number only.

For the compound Cl.NC(=O)[C@@H]1CC[C@H](c2ccc(OCc3ccccc3F)cc2)N1 [Example 1, hydrochloride] , what fraction unbound is on record?
0.032

----------
Experiment: Phase 1 study of effect of UGT inhibition by valproic acid on PK of BIIB074
Type: in vivo, human
Details: BIIB074 with valproic acid/BIIB074 alone
quantityName: AUClast, Geo LS mean ratio

Some compounds with recorded AUClast, Geo LS mean ratio:
| compound | quantityName | number |
| --- | --- | --- |
| O=C(O)C1CCC(c2ccc(OCc3ccccc3F)cc2)N1 (stereo not shown) [Example M14] | AUClast, Geo LS mean ratio | 2.08 |
| Cl.NC(=O)[C@@H]1CC[C@H](c2ccc(OCc3ccccc3F)cc2)N1 [Example 1] | AUClast, Geo LS mean ratio | 1.69 |

P: NC(=O)C1CCC(c2ccc(OCc3ccccc3F)cc2)N1C(=O)OC1OC(C(=O)O)C(O)C(O)C1O (stereo not shown) [Example M13]
Q: O=C(O)C1CCC(c2ccc(OCc3ccccc3F)cc2)=N1 (stereo not shown) [Example M16]
Given the two records P and Q , choose the one whose AUClast, Geo LS mean ratio value is lower. Output the label that corresponds to your choice.
P
(P: 0.52, Q: 1.76)

----------
Assay: Free fraction of Example 1 in plasma
Assay type: in vitro ADME
Conditions: human, listed as 200 mg bid
quantityName: fraction unbound
Respond numerically, and do not add a unit to the figure.

I would be grateful if you could share the reported fraction unbound for Cl.NC(=O)[C@@H]1CC[C@H](c2ccc(OCc3ccccc3F)cc2)N1 [Example 1, hydrochloride] .
0.036

----------
Experiment: Phase 1 study of effect of UGT inhibition by valproic acid on PK of BIIB074
Format: in vivo, human
Settings: human, plasma, oral, single dose BIIB074 with valproic acid; read-out: AUCinf, Geo LS mean
quantityName: AUC(0-inf) (ng·h/mL)
State the answer as a number, implicitly in ng·h/mL.

Data request, read-out AUC(0-inf), for Cl.NC(=O)[C@@H]1CC[C@H](c2ccc(OCc3ccccc3F)cc2)N1
26900

----------
Test: Phase 1 study of effect of UGT inhibition by valproic acid on PK of BIIB074
Assay type: in vivo, human
Settings: human, plasma, oral, single dose BIIB074 with valproic acid; read-out: AUClast, Geo LS mean
quantityName: AUC(0-t) (ng·h/mL)
Answer with a number only, understood to be in ng·h/mL.

Entry under review: Cl.NC(=O)[C@@H]1CC[C@H](c2ccc(OCc3ccccc3F)cc2)N1 . Reported AUC(0-t)?
26500

----------
Test: Free fraction of Example 1 in plasma
Assay type: in vitro ADME
Conditions: human, listed as 150 mg tid
quantityName: fraction unbound
Please give only the number in your answer, with no unit.

Data request, read-out fraction unbound, for Cl.NC(=O)[C@@H]1CC[C@H](c2ccc(OCc3ccccc3F)cc2)N1 [Example 1, hydrochloride]
0.032
